# target-desc: Torsin-1A-interacting protein 1 (Homo sapiens) (UniProt Q5JTV8)
# Sequence (Q5JTV8 whole entry, looked up): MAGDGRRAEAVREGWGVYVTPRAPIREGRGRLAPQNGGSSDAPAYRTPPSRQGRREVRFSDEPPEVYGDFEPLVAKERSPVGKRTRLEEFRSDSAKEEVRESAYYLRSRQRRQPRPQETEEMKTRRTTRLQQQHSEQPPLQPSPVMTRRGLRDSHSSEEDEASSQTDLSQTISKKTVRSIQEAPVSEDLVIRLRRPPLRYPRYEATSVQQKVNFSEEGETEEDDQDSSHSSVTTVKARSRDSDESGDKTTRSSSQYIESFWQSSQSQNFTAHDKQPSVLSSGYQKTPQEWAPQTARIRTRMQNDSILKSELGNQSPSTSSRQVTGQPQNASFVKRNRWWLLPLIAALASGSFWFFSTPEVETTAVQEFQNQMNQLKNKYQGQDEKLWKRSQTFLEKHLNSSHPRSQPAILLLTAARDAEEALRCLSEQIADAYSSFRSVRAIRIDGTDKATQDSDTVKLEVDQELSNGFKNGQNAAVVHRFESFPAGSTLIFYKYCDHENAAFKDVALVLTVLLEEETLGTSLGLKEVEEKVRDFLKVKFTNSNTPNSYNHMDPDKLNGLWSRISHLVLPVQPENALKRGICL
# measurement-notes: compound microarray binding of lysate hLAP1 – cell lysate, small-molecule microarray, COS7 lysate, 635/667 nm fluorescence, primary screen (AID 1116)
# condition-info: 635 nm fluorescence, higher = more signal
Assign fulfilled whenever composite z-score does not fall below 1; assign not fulfilled whenever it does.

- molecule: "CO[C@H]1O[C@H](CO)[C@@H](OC(=O)Nc2ccccc2)[C@H](OC(=O)Nc2ccccc2)[C@H]1OC(=O)Nc1ccccc1"
  group: "fulfilled"
- molecule: "Cc1ccc(S[C@]2(C(=O)NC3CC3)CC(=O)N(C(C)C)[C@@H]2c2ccc(CO)cc2I)cc1"
  group: "fulfilled"
- molecule: "C=CCOC(=O)[C@@H]1[C@H]2C(=O)O[C@H](c3ccccc3)[C@H](c3ccccc3)N2[C@H](c2ccc(OCCOC(=O)[C@H]3C[C@H]4C(=O)N5CCC[C@H]5C(=O)N4[C@H]3c3cccc(OCCO)c3)cc2)[C@@]12C(=O)Nc1ccc(I)cc12"
  group: "fulfilled"
- molecule: "COC(=O)[C@@]1(Cc2ccc(OC)cc2)[C@H]2c3cc(C(=O)N4CCCC4)n(Cc4ccc(Cl)c(C(F)(F)F)c4)c3C[C@H]2CN1C(=O)c1ccccc1"
  group: "fulfilled"
- molecule: "CCCCC(O)C1C=CC2C(=O)N(c3ccccc3)C(=O)C2N1Nc1ccc(C#N)cc1 (stereo unspecified)"
  group: "not fulfilled"
- molecule: "CO[C@H]1O[C@H](CO)[C@@H](OC(=O)Nc2ccccc2-c2ccccc2)[C@H](OC(=O)Nc2ccccc2)[C@H]1OC(=O)Nc1ccccc1"
  group: "fulfilled"
